Provide the reported pIC50 of each item.
Molecular target: human eIF4E protein (Homo sapiens)
Sequence (P06730 whole entry): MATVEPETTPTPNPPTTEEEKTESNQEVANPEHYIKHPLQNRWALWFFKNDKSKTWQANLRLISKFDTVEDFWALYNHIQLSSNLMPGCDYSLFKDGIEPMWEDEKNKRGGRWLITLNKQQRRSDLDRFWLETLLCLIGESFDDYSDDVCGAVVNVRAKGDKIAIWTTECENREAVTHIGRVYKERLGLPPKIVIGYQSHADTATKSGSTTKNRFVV
Test: Biochemical competitive binding assay (TR-FRET competition)
Settings: recombinant 6xHIS-tagged human eIF4E, EDA-m7GDP-ATTO-647N probe; read-out: hEIF4E TR-FRET IC50
pIC50: −log10 of the molar value.

Q: Sample Cc1nc2c(c(=O)n1CCOc1ccc(Cl)cc1-c1ccnc(-c3n[nH]c(=O)o3)c1)CN(C)CC2 — what was its pIC50?
Result: 5.00 to 6.40

Q: Sample COCCN1CCc2nc(C)n(CCOc3ccc(Cl)cc3-c3ccnc(C(=O)O)c3)c(=O)c2C1 — what was its pIC50?
Result: > 6.40

Q: Sample Cc1cc(-c2cc(Cl)ccc2OCCn2c(C)nc3c(c2=O)CN(c2ccnc4ccncc24)CC3)c2scc(C(=O)O)c2n1 — what was its pIC50?
Result: > 6.40

Q: Sample Cc1nc2c(c(=O)n1CCOc1ccc(Cl)cc1-c1ccnc(C(=O)NS(C)(=O)=O)c1)CN(C)CC2 — what was its pIC50?
Result: > 6.40

Q: Sample CC(=O)N1CCc2nc(C)n(CCOc3ccc(Cl)cc3-c3cccc(C(=O)O)c3)c(=O)c2C1 — what was its pIC50?
Result: 5.00 to 6.40

Q: Sample Cc1cc(-c2cc(Cl)ccc2OCCn2c(C)nc3c(c2=O)CN(CC(F)(F)F)CC3)c2scc(C(=O)O)c2n1 — what was its pIC50?
Result: > 6.40

Q: Sample Cc1cc(-c2cc(Cl)ccc2OCCn2c(C)nc3c(c2=O)CN(Cc2ccncc2)CC3)c2scc(C(=O)O)c2n1 — what was its pIC50?
Result: > 6.40

Q: Sample Cc1nc2c(c(=O)n1CCOc1ccc(Cl)cc1-c1cccc(C(=O)O)c1)CN(C1CCOCC1)CC2 — what was its pIC50?
Result: 5.00 to 6.40

Q: Sample Cc1cc(-c2cc(Cl)ccc2OCCn2c(C)nc3c(c2=O)CN(C)CC3)c2ccc(C(=O)NS(C)(=O)=O)n2n1 — what was its pIC50?
Result: > 6.40

Q: Sample CCN1CCc2nc(C)n(CCOc3ccc(Cl)cc3-c3cccc(C(=O)O)c3)c(=O)c2C1 — what was its pIC50?
Result: > 6.40

Q: Sample Cc1cc(-c2cc(Cl)ccc2OCCn2c(C)nc3c(c2=O)CN(c2ccn4ncnc4c2)CC3)c2scc(C(=O)O)c2n1 — what was its pIC50?
Result: > 6.40

Q: Sample Cc1cc(-c2cc(Cl)ccc2OCCn2c(C)nc3c(c2=O)CN(CC(F)(F)F)CC3)c2scc(C(=O)NS(C)(=O)=O)c2n1 — what was its pIC50?
Result: > 6.40

Q: Sample Cc1cc(-c2cc(Cl)ccc2OCCn2c(C)nc3c(c2=O)CN(C)CC3)c2scc(C(=O)NS(C)(=O)=O)c2n1 — what was its pIC50?
Result: > 6.40

Q: Sample Cc1nc2c(c(=O)n1CCOc1ccc(Cl)cc1-c1ccnc3c(C(=O)O)csc13)CN(C)CC2 — what was its pIC50?
Result: > 6.40

Q: Sample Cc1cc(-c2cc(Cl)ccc2OCCn2c(C)nc3c(c2=O)CN(c2cc(F)ccc2F)CC3)c2scc(C(=O)O)c2n1 — what was its pIC50?
Result: > 6.40

Q: Sample Cc1nc2c(c(=O)n1CCOc1ccc(Cl)cc1-c1cccc(C(=O)O)c1)CN(C)CC2 — what was its pIC50?
Result: > 6.40

Q: Sample Cc1cc(-c2cc(Cl)ccc2OCCn2c(C)nc3c(c2=O)CN(c2ccccc2F)CC3)c2scc(C(=O)O)c2n1 — what was its pIC50?
Result: > 6.40

Q: Sample Cc1nc2c(c(=O)n1CCOc1cnc(Cl)cc1-c1ccnc(C(=O)O)c1)CN(C)CC2 — what was its pIC50?
Result: 5.00 to 6.40

Q: Sample Cc1cc(-c2cc(Cl)ccc2OCCn2c(C)nc3c(c2=O)CN(C)CC3)c2scc(C(=O)O)c2n1 — what was its pIC50?
Result: > 6.40

Q: Sample Cc1cc(-c2cc(Cl)ccc2OCCn2c(C)nc3c(c2=O)CN(C)CC3)c2ccc(C(=O)O)n2n1 — what was its pIC50?
Result: > 6.40

Q: Sample Cc1nc2c(c(=O)n1CC#Cc1ccc(Cl)cc1-c1ccnc3c(C(=O)O)csc13)CN(C)CC2 — what was its pIC50?
Result: 4.00 to 5.00

Q: Sample CN1CCc2ncn(CCOc3ccc(Cl)cc3-c3cccc(C(=O)O)c3)c(=O)c2C1 — what was its pIC50?
Result: 4.00 to 5.00

Q: Sample Cc1cc(-c2cc(Cl)ccc2OCCn2c(C)nc3c(c2=O)CN(C)CCO3)c2scc(C(=O)O)c2n1 — what was its pIC50?
Result: > 6.40

Q: Sample COc1cc(N2CCc3nc(C)n(CCOc4ccc(Cl)cc4-c4cc(C)nc5c(C(=O)O)csc45)c(=O)c3C2)ccn1 — what was its pIC50?
Result: > 6.40

Q: Sample Cc1nc2c(c(=O)n1CCOc1ccc(Br)cc1-c1cccc(C(=O)O)c1)CN(C)CC2 — what was its pIC50?
Result: > 6.40

Q: Sample Cc1nc2c(c(=O)n1CCOc1ccc(Cl)cc1-c1ccnn3c(C(=O)O)ccc13)CN(C)CC2 — what was its pIC50?
Result: > 6.40

Q: Sample Cc1nc2c(c(=O)n1CCOc1ccc(Cl)cc1-c1ccc(C(=O)O)cc1)CN(C)CC2 — what was its pIC50?
Result: 4.00 to 5.00

Q: Sample Cc1nc2c(c(=O)n1CCOc1ccc(Cl)cc1-c1cccc(C(=O)O)c1F)CN(C)CC2 — what was its pIC50?
Result: > 6.40

Q: Sample COCCN1CCc2nc(C)n(CCOc3ccc(Cl)cc3-c3cccc(C(=O)O)c3)c(=O)c2C1 — what was its pIC50?
Result: 5.00 to 6.40

Q: Sample Cc1nc2c(c(=O)n1CCOc1ccc(Cl)cc1-c1ccnc(C(=O)O)c1)CN(C)CC2 — what was its pIC50?
Result: > 6.40

Q: Sample Cc1nc2c(c(=O)n1CCOc1ccc(Cl)cc1-c1cccc(C(=O)O)c1)CN(C1COC1)CC2 — what was its pIC50?
Result: 4.00 to 5.00

meta.source: patent US20260176277A1
